Protocol description: Drug uptake in Sprague-Dawley rat epididymal fat at 300 mg/kg, po administered for 7 days measured 4 hrs post dose on day 7
Assay type: ADME, organism-based, Epididymal fat pad
Condition details: read-out: Drug uptake
Parameter: concentration at 4 h (ng/g)
State just the number; it will be interpreted in ng/g.

Ask: Fill in: concentration at 4 h of CC/C=C\C/C=C\C/C=C\C/C=C\C/C=C\C/C=C\CCC(=O)NCCNC(=O)c1ccccc1O is ___
Reply: 772

----------
Protocol description: Plasma concentration in Sprague-Dawley rat at 300 mg/kg, qd administered through oral gavage for 7 days measured 2 hrs post last dose by LC/MS/MS analysis
Assay type: ADME, organism-based
Parameter: concentration at 2 h (ng/mL)
Field format: number, assumed ng/mL, no unit text.

Ask: // query concentration at 2 h value for entry CC/C=C\C/C=C\C/C=C\C/C=C\C/C=C\CCCC(=O)NCCNC(=O)c1cccnc1
Reply: 13
